Assay: Selectivity index, ratio of IC50 for rat L6 cells to IC50 for Trypanosoma brucei rhodesiense STIB 900
Assay type: toxicity, cell-based
Details: L6 cells versus Trypanosoma brucei rhodesiense STIB 900, read-out: Ratio IC50
Values of selectivity ratio greater than or equal to 20 map to true; values below map to false.

structure_smiles | category_label
O=[N+]([O-])c1nccn1CCCNCc1ccc2cc(Br)ccc2n1 | false

Hi, just wondering whether Cl.O=[N+]([O-])c1nccn1CCCNc1nc(-c2ccccc2)nc2ccccc12 shows selectivity ratio of 20 or higher. true

Hi, just wondering whether Cl.O=[N+]([O-])c1ncn(CCCN(Cc2ccc3cc(Br)ccc3n2)Cc2ccc3cc(Br)ccc3n2)n1 shows selectivity ratio of 20 or higher. true

Hi, just wondering whether O=[N+]([O-])c1nccn1CCCCNc1c2ccccc2nc2ccccc12 shows selectivity ratio of 20 or higher. false

Hi, just wondering whether O=[N+]([O-])c1nccn1CCCN(Cc1cccc(C(F)(F)F)c1)Cc1cccc(C(F)(F)F)c1 shows selectivity ratio of 20 or higher. false

Hi, just wondering whether Cl.O=[N+]([O-])c1ncn(CCCNCc2cc(C(F)(F)F)cc(C(F)(F)F)c2)n1 shows selectivity ratio of 20 or higher. false

Hi, just wondering whether Cc1cc(NCCCCn2ccnc2[N+](=O)[O-])nc(N)n1 shows selectivity ratio of 20 or higher. true

Hi, just wondering whether Cl.O=[N+]([O-])c1ncn(CCCNc2nc(-c3ccccc3)nc3ccccc23)n1 shows selectivity ratio of 20 or higher. true

Hi, just wondering whether O=[N+]([O-])c1nccn1CCCCNc1nc(-c2ccccc2)nc2ccccc12 shows selectivity ratio of 20 or higher. false

====

Assay: Selectivity index, ratio of IC50 for rat L6 cells to IC50 for Leishmania donovani MHOM-ET-67/L82
Format: toxicity, cell-based
Conditions: L6 cells versus Leishmania donovani MHOM-ET-67/L82, read-out: Ratio IC50
property: selectivity ratio
Lab note: record just the number, no unit beside it.

structure_smiles | property | experimental_value
Cl.Cl.O=[N+]([O-])c1ncn(CCCCN2CCN(Cc3ccc(C(F)(F)F)cc3)CC2)n1 | selectivity ratio | 3
O=C1C(Cl)=C(NCCCn2cnc([N+](=O)[O-])n2)C(=O)c2ccccc21 | selectivity ratio | 1

// fetch selectivity ratio given entry Cl.O=[N+]([O-])c1ncn(CCCN(Cc2ccc(C(F)(F)F)cc2)Cc2ccc(C(F)(F)F)cc2)n1 264

====

Assay: Selectivity index, ratio of IC50 for rat L6 cells to IC50 for Trypanosoma brucei rhodesiense STIB 900
Assay type: toxicity, cell-based
Conditions: L6 cells versus Trypanosoma brucei rhodesiense STIB 900, read-out: Ratio IC50
selectivity ratio by entry:

structure_smiles | selectivity ratio
Cc1cc(NCCCn2ccnc2[N+](=O)[O-])nc(N)n1 | > 28
O=[N+]([O-])c1nccn1CCCN(Cc1ccc(C(F)(F)F)cc1)Cc1ccc(C(F)(F)F)cc1 | > 7

Then there is this molecule:
// fetch selectivity ratio given entry Cl.Cl.O=[N+]([O-])c1ncn(CCCN2CCN(Cc3ccc(C(F)(F)F)cc3)CC2)n1 > 140

====

selectivity ratio by entry:
Assay: Selectivity index, ratio of IC50 for rat L6 cells to IC50 for Trypanosoma brucei rhodesiense STIB 900
Type: toxicity, cell-based
Conditions: L6 cells versus Trypanosoma brucei rhodesiense STIB 900, read-out: Ratio IC50

Worked cases, selectivity ratio given:
structure_smiles | selectivity ratio
Cc1nc(C(F)(F)F)nc(NCCCn2ccnc2[N+](=O)[O-])c1C | > 16
Clc1ccc2c(NCCCCn3cncn3)ccnc2c1 | > 14
O=[N+]([O-])c1nccn1CCCN1CCN(Cc2ccc(C(F)(F)F)cc2)CC1 | > 13

Then there is this molecule:
// fetch selectivity ratio given entry Cc1cc(NCCCn2cnc([N+](=O)[O-])n2)nc(N)n1 > 131
